assay.system: F508delCFTR (Homo sapiens, UniProt P13569, DEL508-508)
Construct: expressed in transfected cells; host or cells: CFBE41o- (human lung derived epithelial cell line), doxycycline-inducible expression
Sequence (P13569 with tags, fused parts or gaps DEL508-508): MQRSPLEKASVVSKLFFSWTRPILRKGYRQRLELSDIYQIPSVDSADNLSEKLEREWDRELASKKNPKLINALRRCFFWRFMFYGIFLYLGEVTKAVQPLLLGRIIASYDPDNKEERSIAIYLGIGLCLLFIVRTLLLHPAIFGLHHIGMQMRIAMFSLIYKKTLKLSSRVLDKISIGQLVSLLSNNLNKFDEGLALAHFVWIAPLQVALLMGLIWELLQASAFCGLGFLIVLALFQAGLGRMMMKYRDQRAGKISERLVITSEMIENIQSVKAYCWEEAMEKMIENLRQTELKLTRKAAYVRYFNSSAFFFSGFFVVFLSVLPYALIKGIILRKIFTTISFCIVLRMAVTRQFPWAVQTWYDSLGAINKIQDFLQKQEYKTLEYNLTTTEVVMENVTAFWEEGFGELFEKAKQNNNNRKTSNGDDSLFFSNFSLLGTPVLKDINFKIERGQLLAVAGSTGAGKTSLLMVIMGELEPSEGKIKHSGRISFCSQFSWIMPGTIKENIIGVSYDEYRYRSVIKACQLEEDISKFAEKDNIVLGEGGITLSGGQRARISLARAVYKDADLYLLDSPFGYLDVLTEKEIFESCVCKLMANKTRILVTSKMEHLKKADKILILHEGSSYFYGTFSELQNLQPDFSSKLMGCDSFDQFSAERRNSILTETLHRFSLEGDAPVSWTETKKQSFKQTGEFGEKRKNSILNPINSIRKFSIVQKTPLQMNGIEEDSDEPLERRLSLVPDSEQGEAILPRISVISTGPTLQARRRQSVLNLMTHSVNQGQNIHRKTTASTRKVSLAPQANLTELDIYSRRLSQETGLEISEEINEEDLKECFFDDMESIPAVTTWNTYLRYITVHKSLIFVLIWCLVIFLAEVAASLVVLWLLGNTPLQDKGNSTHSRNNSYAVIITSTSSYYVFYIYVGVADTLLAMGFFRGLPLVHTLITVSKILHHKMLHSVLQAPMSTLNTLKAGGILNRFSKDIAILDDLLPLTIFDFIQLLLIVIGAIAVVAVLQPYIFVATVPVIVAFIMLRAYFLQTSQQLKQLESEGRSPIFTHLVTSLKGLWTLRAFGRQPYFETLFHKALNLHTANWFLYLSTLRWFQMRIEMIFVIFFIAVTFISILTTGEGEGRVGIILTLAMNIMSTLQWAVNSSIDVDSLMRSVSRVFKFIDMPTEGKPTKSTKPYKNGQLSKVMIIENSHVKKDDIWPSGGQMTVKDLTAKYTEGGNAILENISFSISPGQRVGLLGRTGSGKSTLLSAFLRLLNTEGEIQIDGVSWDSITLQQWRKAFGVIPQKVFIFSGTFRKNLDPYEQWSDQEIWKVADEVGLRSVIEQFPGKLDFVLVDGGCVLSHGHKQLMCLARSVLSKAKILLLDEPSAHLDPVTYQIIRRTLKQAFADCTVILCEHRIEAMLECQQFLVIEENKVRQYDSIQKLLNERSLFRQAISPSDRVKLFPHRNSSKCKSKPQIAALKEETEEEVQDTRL
assay.protocol: Cell Surface Expression-Horse Radish Peroxidase (CSE-HRP) assay
Format: cell-based
settings: CFBE41o-F508delCFTR-HRP cells; with co-corrector (2 μM of 3-[(2R,4R)-4-({[1-(2,2-difluoro-1,3-benzodioxol-5-yl)cyclopropyl]carbonyl}amino)-7-methoxy-3,4-dihydro-2H-chromen-2-yl]benzoic acid); read-out: EC50 (with co-corrector)
pEC50: −log10 of the molar value.
measured.parameter: pEC50

Please review the following examples before continuing.
| compound | assay.system | readout.value |
| --- | --- | --- |
| COc1ncc(C(C)(C)C)cc1CO[C@H]1[C@H](C(C)(C)C)[C@@H](C(=O)O)N(C(=O)OC(C)C)[C@H]1c1ccccc1 [Example 63] | F508delCFTR (Homo sapiens, UniProt P13569, DEL508-508) | 5.00 to 6.00 |
| COc1ncc(N2CCCC2)cc1CO[C@H]1[C@H](C(C)(C)C)[C@@H](C(=O)O)N(C(=O)OC(C)C)[C@H]1c1ccccc1 [Example 82] | F508delCFTR (Homo sapiens, UniProt P13569, DEL508-508) | 5.00 to 6.00 |

Next item in the queue.
Q: State the measured pEC50 (F508delCFTR (Homo sapiens, UniProt P13569, DEL508-508)) of COc1ncc(C2CC3CCC2C3)cc1CO[C@H]1[C@H](C(C)(C)C)[C@@H](C(=O)O)N(C(=O)C2CCCCC2)[C@H]1c1ccccc1F (stereo partly drawn) [Example 58]
Ans: > 6.00

====

Catalogue of pEC50 readings, one per entry.
assay.system: F508delCFTR (Homo sapiens, UniProt P13569, DEL508-508)
Construct: expressed in transfected cells; host or cells: CFBE41o- (human lung derived epithelial cell line), doxycycline-inducible expression
assay.protocol: Cell Surface Expression-Horse Radish Peroxidase (CSE-HRP) assay
Format: cell-based
settings: CFBE41o-F508delCFTR-HRP cells; with co-corrector (2 μM of 3-[(2R,4R)-4-({[1-(2,2-difluoro-1,3-benzodioxol-5-yl)cyclopropyl]carbonyl}amino)-7-methoxy-3,4-dihydro-2H-chromen-2-yl]benzoic acid); read-out: EC50 (with co-corrector)
pEC50: −log10 of the molar value.

Q: Indicate its recorded pEC50; the molecule in question is COc1ccc(C(F)(F)F)cc1CO[C@H]1[C@H](C(C)(C)C)[C@@H](C(=O)NS(C)(=O)=O)N(C(=O)C2CCCCC2)[C@H]1c1ccccc1 [Example 26]
Ans: 5.00 to 6.00

Q: # return recorded pEC50 for input COc1ccc(C(F)(F)F)cc1[C@@H](C)CO[C@H]1[C@H](C(C)(C)C)[C@@H](C(=O)O)N(C(=O)[C@@H]2CCCCO2)[C@H]1c1ccccc1C [Example 272]
Ans: > 6.00

Q: Supply pEC50 value. Item: [2H]C([2H])([2H])Oc1ccc(C(F)(F)F)cc1C([2H])([2H])O[C@H]1[C@H](C(C)(C)C)[C@@H](C(=O)O)N(C(=O)[C@@H]2CCCCO2)[C@H]1c1ccccc1C [Example 234]
Ans: > 6.00

Q: Give pEC50 for COc1nc2cc(C)cc(C)c2cc1CO[C@H]1[C@H](C(C)(C)C)[C@@H](C(=O)O)N(C(=O)[C@@H]2CCCCO2)[C@H]1c1ccccc1C [Example 238]
Ans: > 6.00

Q: Name the recorded pEC50 of the molecule listed here: COc1ncc(C(F)(F)F)cc1CO[C@@H]1[C@@H](C(C)(C)C)[C@H](C(=O)O)N(C(=O)C2CCCCC2)[C@@H]1c1ccccc1 (racemic) [Example 20]
Ans: > 6.00

Q: State, in one line, measured pEC50 of COc1ncc(C2CCC2)cc1CO[C@H]1[C@H](C(C)(C)C)[C@@H](C(=O)O)N(C(=O)C2CCCCC2)[C@H]1c1ccccc1 [Example 53]
Ans: > 6.00

Q: Determine its reported pEC50: COc1ncc(C2CCC2)cc1CO[C@H]1[C@H](C(C)(C)C)[C@@H](C(=O)O)N(C(=O)[C@@H]2CCCCO2)[C@H]1c1cc(Cl)ccc1C [Example 229]
Ans: > 6.00

====

assay.system: F508delCFTR (Homo sapiens, UniProt P13569, DEL508-508)
Construct: expressed in transfected cells; host or cells: CFBE41o- (human lung derived epithelial cell line), doxycycline-inducible expression
assay.protocol: Cell Surface Expression-Horse Radish Peroxidase (CSE-HRP) assay;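 as to Maximum % activity (without co-corrector): % of on-plate positive control (2 µM of the co-corrector compound) after DMSO subtraction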
Assay type: cell-based
settings: CFBE41o-F508delCFTR-HRP cells; without co-corrector; normalized to on-plate positive control; highest concentration 20 μM
measured.parameter: Maximum % activity (without co-corrector)

// below: answered compounds
| compound | readout.value |
| --- | --- |
| COc1ccc(Cl)cc1COC1[C@@H](c2ccccc2)N(C(=O)C2CCCCC2)[C@@H](C(=O)O)[C@@H]1C(C)(C)C (mixture of isomers) [Example 3] | ++ (≥100 and <200) |
| COc1ccc(C(F)(F)F)cc1CO[C@@H]1[C@@H](C(C)(C)C)[C@H](C(=O)O)N(C(=O)[C@H]2CCC[C@H](OC)C2)[C@@H]1c1ccccc1 [Example 27] | ++ (≥100 and <200) |
| COc1ncc(C(F)(F)F)cc1CO[C@H]1[C@H](C(C)(C)C)[C@@H](C(=O)O)N(C(=O)[C@@H]2CCCCO2)[C@H]1c1ccccc1 [Example 89] | ++ (≥100 and <200) |
| COc1ncc(C(F)(F)F)cc1CO[C@H]1[C@H](C(C)(C)C)[C@@H](C(=O)O)N(C(=O)[C@@H]2CCCO2)[C@H]1c1cccc(Br)c1 [Example 118] | ++ (≥100 and <200) |
| COc1ncc(C(F)(F)F)cc1CO[C@H]1[C@H](C(C)(C)C)[C@@H](C(=O)O)N(C(=O)[C@@H]2CCCCO2)[C@H]1c1cccc2ccoc12 [Example 212] | ++ (≥100 and <200) |
| COc1ncc(C(F)(F)F)cc1CO[C@H]1[C@H](C(C)(C)C)[C@@H](C(=O)O)N(C(=O)[C@@H]2CCCC[C@H]2C(F)(F)F)[C@H]1c1cccnc1OC(C)C (single isomer, unassigned) [Example 282] | + (<100) |

Q: Let me know recorded Maximum % activity (without co-corrector) for COc1ncc(C(C)(C)C)cc1CO[C@H]1[C@H](C(C)(C)C)[C@@H](C(=O)O)N(C(=O)[C@@H]2CCCCO2)[C@H]1c1ccccc1C [Example 233] , thanks.
Ans: +++ (≥200)

Q: Input COc1ncc(C(F)(F)F)cc1CO[C@H]1[C@H](C(C)(C)C)[C@@H](C(=O)O)N(C(=O)C2CCCCC2)[C@H]1c1cccc2c1OC(C)(C)C2 [Example 257] , output reported Maximum % activity (without co-corrector).
Ans: + (<100)

Q: Read the entry COc1ncc(C(C)(C)C)cc1CO[C@H]1[C@H](C(C)(C)C)[C@@H](C(=O)O)N(C(=O)C2CCCCC2)[C@H]1c1cccnc1OC(C)C [Example 250] and write its reported Maximum % activity (without co-corrector).
Ans: ++ (≥100 and <200)

Q: // Input: COc1nc2cc(C)cc(C)c2cc1CO[C@H]1[C@H](C(C)(C)C)[C@@H](C(=O)O)N(C(=O)OC(C)C)[C@H]1c1cccnc1OC(C)C [Example 253] . Output its Maximum % activity (without co-corrector) only.
Ans: +++ (≥200)

Q: For the compound COc1ncc(N2CCCC2)cc1CO[C@H]1[C@H](C(C)(C)C)[C@@H](C(=O)O)N(C(=O)C2CCCCC2)[C@H]1c1ccccc1F [Example 59] , give its measured Maximum % activity (without co-corrector) value.
Ans: + (<100)

Q: For COc1ccc(-c2ccccc2)cc1CO[C@H]1[C@H](C(C)(C)C)[C@@H](C(=O)O)N(C(=O)OC(C)C)[C@H]1c1ccccc1 [Example 38] , write its Maximum % activity (without co-corrector).
Ans: ++ (≥100 and <200)

====

assay.system: F508delCFTR (Homo sapiens, UniProt P13569, DEL508-508)
Construct: expressed in transfected cells; host or cells: CFBE41o- (human lung derived epithelial cell line), doxycycline-inducible expression
assay.protocol: Cell Surface Expression-Horse Radish Peroxidase (CSE-HRP) assay;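 as to Maximum % activity (with co-corrector): % of on-plate positive control (2 µM of the co-corrector compound) after DMSO subtraction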
Assay type: cell-based
settings: CFBE41o-F508delCFTR-HRP cells; with co-corrector (2 μM); normalized to on-plate positive control; highest concentration 20 μM
measured.parameter: Maximum % activity (with co-corrector)

Below, each entry is followed by its recorded Maximum % activity (with co-corrector) result.
| given.smiles | assay.system | Maximum % activity (with co-corrector) |
| --- | --- | --- |
| COc1ncc(N2CCCC2)cc1CO[C@H]1[C@H](C(C)(C)C)[C@@H](C(=O)O)N(C(=O)OC(C)C)[C@H]1c1ccccc1 | F508delCFTR (Homo sapiens, UniProt P13569, DEL508-508) | ++ (≥150 and <350) |
| COc1nc2ccccc2cc1CO[C@H]1[C@H](C(C)(C)C)[C@@H](C(=O)O)N(C(=O)[C@@H]2CCCO2)[C@H]1c1ccccc1Br | F508delCFTR (Homo sapiens, UniProt P13569, DEL508-508) | ++ (≥150 and <350) |
| COc1ncc(C2CCC2)cc1CO[C@H]1[C@H](C(C)(C)C)[C@@H](C(=O)O)N(C(=O)C2CCOCC2)[C@H]1c1cccnc1OC(C)C | F508delCFTR (Homo sapiens, UniProt P13569, DEL508-508) | ++ (≥150 and <350) |
| COc1cc(C(F)(F)F)ccc1CO[C@H]1[C@H](C(C)(C)C)[C@@H](C(=O)O)N(C(=O)[C@H]2CCC[C@H](OC)C2)[C@H]1c1ccccc1 | F508delCFTR (Homo sapiens, UniProt P13569, DEL508-508) | +++ (≥350) |
| COc1ncc(C2CCC2)cc1CO[C@H]1[C@H](C(C)(C)C)[C@@H](C(=O)O)N(C(=O)C2CCOCC2)[C@H]1c1ccccc1C1CC1 | F508delCFTR (Homo sapiens, UniProt P13569, DEL508-508) | +++ (≥350) |

Q: Provide only the value of recorded Maximum % activity (with co-corrector) for COc1ncc(C(F)(F)F)cc1CO[C@H]1[C@H](C(C)(C)C)[C@@H](C(=O)O)N(C(=O)OC(C)C)[C@H]1c1ccccc1
Ans: +++ (≥350)
